# assay_method_text: self-splicing fitness, log relative to wild type (ln ratio); higher = more splicing; Tetrahymena group I intron in knt gene, E. coli kanamycin selection, DiMSum; sequences stand for … in CUCUCU…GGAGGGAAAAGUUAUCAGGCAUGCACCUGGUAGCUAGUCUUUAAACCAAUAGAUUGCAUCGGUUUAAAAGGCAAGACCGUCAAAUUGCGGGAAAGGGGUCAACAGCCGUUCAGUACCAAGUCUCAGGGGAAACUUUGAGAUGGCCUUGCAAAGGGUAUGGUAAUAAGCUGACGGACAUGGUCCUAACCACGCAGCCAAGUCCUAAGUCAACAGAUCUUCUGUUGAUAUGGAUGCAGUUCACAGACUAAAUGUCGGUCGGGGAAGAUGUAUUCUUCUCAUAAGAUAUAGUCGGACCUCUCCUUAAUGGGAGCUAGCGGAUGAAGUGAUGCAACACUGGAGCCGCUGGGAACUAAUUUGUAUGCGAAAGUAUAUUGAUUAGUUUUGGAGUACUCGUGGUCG;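 also: selection with 25 µg/mL kanamycin versus none on LB agar overnight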
# run_parameters: 37 °C
The recorded self-splicing fitness (ln) of each item maps onto one of these classes: LOW (below -2), MEDIUM (-2 to below -0.7), HIGH (-0.7 or more)

// known answers, use as guide
sequence_input	label
GUUUAGCAAUAUUACGACAC	HIGH
AUGGAGCAAUAUUACGACCU	HIGH
GCAAAGCAAUAUUACGGUGA	HIGH
AUGCAGCAAUAUUACGCAUA	LOW

Dear colleague, I would appreciate it if you could identify the bin for AGGUAGCAAUAUUACGUCAC and reply at your convenience.
LOW

Hi there! Could you help me figure out the category for UGAUAGCAAUAUUACGUUAU please?
LOW

Into which category would you place UGCGAGCAAUAUUACGUCAA ?
MEDIUM

Into which category would you place CAGGAGCAAUAUUACGGUAA ?
LOW

Note: place this sequence into its band. Item: ACGCAGCAAUAUUACGAUAC
MEDIUM

Class for GUUAAGCAAUAUUACGCGAG ?
HIGH

Hello team, could you let me know which band the following sequence falls into: UGCAAGCAAUAUUACGGUUG
MEDIUM

Record AGACAGCAAUAUUACGUGUC — which class?
LOW

Lab note: which band did GAGGAGCAAUAUUACGAUGG land in?
LOW

In plain terms, what class is UCCAAGCAAUAUUACGUGAC ?
LOW

Source listed as the supplement of paper PMC7877785.
